tested on: PPARa:RXRa (NR concentration 270 nM, RXRa partner concentration 90 nM); experiment: PBM binding z-score (relative to random genomic background probes); higher = stronger binding; sequences stand for … in GC…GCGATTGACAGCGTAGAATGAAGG
Criterion: PBM binding z-score meeting or surpassing 4. Met: yes. Not met: no.

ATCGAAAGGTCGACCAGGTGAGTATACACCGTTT	yes
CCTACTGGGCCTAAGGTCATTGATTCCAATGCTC	yes
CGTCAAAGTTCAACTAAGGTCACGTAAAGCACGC	yes
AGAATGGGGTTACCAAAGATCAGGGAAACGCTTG	yes
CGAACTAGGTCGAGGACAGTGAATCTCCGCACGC	no

hey, is PBM binding z-score for this one >= 4? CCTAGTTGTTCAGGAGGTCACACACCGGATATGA
yes

* * *

tested on: PPARg:RXRa IVT, anti-PPARg (NR concentration 270 nM, RXRa partner concentration 90 nM); assay: PBM binding z-score (relative to random genomic background probes); higher = stronger binding; sequences stand for … in GC…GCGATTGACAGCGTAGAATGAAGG
measured-metric: PBM binding z-score
A bare number is all that is needed in reply.

Examples from the recorded data:
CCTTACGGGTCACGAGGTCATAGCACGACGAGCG	6.02
CGTCCAAGGTCAAGGTCAATGAAAGAGACTCGAA	5.34
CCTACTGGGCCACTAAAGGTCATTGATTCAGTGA	5.37
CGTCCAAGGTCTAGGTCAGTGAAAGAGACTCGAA	1.61
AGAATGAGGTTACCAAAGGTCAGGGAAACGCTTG	4.54

Now turn to the next sequence.
Note to self: PBM binding z-score of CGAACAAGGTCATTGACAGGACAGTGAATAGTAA with PPARg:RXRa IVT, anti-PPARg (NR concentration 270 nM, RXRa partner concentration 90 nM) was 4.81

* * *

Measured PBM binding z-score values are reported for all entries that follow.
system: THRa homodimer (NR concentration 90 nM); assay: PBM binding z-score (relative to random genomic background probes); higher = stronger binding; sequences stand for … in GC…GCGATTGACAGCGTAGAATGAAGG
A bare number is all that is needed in reply.

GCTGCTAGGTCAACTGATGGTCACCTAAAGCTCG	1.69

Now turn to the next sequence.
Memo: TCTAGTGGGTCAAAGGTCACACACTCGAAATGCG , reported PBM binding z-score: 1.7

* * *

test system: PPARg DBDmut IVT, anti-PPARg (DBD mutation: PPARg1 K132A/R137A, NR concentration 270 nM); assay: PBM binding z-score (relative to random genomic background probes); higher = stronger binding; sequences stand for … in GC…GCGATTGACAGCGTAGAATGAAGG
measured-metric: PBM binding z-score
A bare number is all that is needed in reply.

Examples from the recorded data:
AATACAGGGTCACGAGGCCAGAGTAGGTACGAAT	2.16
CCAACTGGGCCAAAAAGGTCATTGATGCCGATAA	-0.68
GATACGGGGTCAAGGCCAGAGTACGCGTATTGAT	2.07
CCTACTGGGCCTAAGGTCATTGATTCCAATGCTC	-0.793

Memo: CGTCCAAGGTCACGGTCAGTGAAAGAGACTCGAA , reported PBM binding z-score: 0.958

Memo: ACTTAGGGGTCAACGAGGTTATAGCACGCGTATA , reported PBM binding z-score: 2.86

Memo: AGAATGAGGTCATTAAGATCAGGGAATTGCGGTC , reported PBM binding z-score: 0.816

Reference source: the supplement of paper PMC6555819
